Entries and their pIC50 values follow.
SUBJECT_OF_TEST: hROMK (hKir1.1) (Homo sapiens (Human), UniProt P48048)
Sequence (P48048 whole entry): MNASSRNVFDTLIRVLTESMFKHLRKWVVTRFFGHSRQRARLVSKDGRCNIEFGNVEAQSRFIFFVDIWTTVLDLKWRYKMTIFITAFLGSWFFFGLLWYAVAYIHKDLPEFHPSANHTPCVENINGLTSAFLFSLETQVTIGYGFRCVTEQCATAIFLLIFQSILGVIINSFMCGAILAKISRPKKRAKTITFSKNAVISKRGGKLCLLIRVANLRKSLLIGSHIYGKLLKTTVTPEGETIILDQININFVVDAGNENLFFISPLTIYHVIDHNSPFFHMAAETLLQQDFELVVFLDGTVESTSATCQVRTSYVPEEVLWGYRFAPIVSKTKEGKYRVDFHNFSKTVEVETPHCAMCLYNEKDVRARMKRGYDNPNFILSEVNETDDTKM
ASSAY_REMARKS: Thallium Flux Assay (ROMK channel functional thallium flux, FLIPR-Tetra)
Format: cell-based
CONDITION_DESCRIPTION: HEK293 cells stably expressing hROMK (hKir1.1); read-out: Thallium Flux IC50
pIC50: −log10 of the molar value.
MEASURED_METRIC: pIC50

>  <COMPOUND>
Cc1c(CCN2CCN3C[C@@H](c4ccc(F)c(C#N)c4)OC[C@@H]3C2)ccc2c1COC2=O

>  <RECORDED_RESULT>
6.82

$$$$
>  <COMPOUND>
Cc1c([C@H]2CN3CCN(CCc4ccc5c(c4)COC5=O)C[C@H]3CO2)ccc2c1COC2=O

>  <RECORDED_RESULT>
6.77

$$$$
>  <COMPOUND>
Cc1c([C@H]2CN3CCN(CC(C)c4ccc5c(c4)COC5=O)C[C@H]3CO2)ccc2c1COC2=O (some centres unmarked)

>  <RECORDED_RESULT>
6.77

$$$$
>  <COMPOUND>
COc1c([C@@H]2CN3CCN(C[C@H](O)c4ccc5c(c4C)COC5=O)C[C@H]3CO2)ccc(C#N)c1F

>  <RECORDED_RESULT>
6.64

$$$$
>  <COMPOUND>
COc1cc([C@H]2CN3CCN(CCc4ccc5c(c4C)COC5=O)C[C@@H]3CO2)ccc1C#N

>  <RECORDED_RESULT>
6.96

$$$$
>  <COMPOUND>
Cc1c([C@@H]2CN3CCN(CCc4ccc5c(c4)C[C@H](C)OC5=O)C[C@H]3CO2)ccc2c1COC2=O

>  <RECORDED_RESULT>
7.10

$$$$
>  <COMPOUND>
COc1cc(C(O)CN2CCN3C[C@@H](c4ccc5c(c4C)COC5=O)OC[C@@H]3C2)c(Cl)cc1C#N (some centres unmarked)

>  <RECORDED_RESULT>
6.37

$$$$
>  <COMPOUND>
Cc1c(CCN2CCN3C[C@H](c4ccc5c(c4Cl)COC5=O)OC[C@@H]3C2)ccc2c1COC2=O

>  <RECORDED_RESULT>
6.70

$$$$
>  <COMPOUND>
Cc1c([C@H]2CN3CCN(C[C@H](O)c4ccc5c(c4)COC5=O)C[C@@H]3CN2)ccc(F)c1C#N

>  <RECORDED_RESULT>
7.00

$$$$
>  <COMPOUND>
COc1cc([C@H]2CN3CCN(C[C@H](O)c4ccc5c(c4C)COC5=O)C[C@@H]3CO2)cc(F)c1C#N

>  <RECORDED_RESULT>
6.62

$$$$
>  <COMPOUND>
COc1c([C@@H]2CN3CCN(C[C@H](O)c4ccc5c(c4C)COC5=O)C[C@@H]3CO2)ccc(C#N)c1F

>  <RECORDED_RESULT>
6.55

$$$$
>  <COMPOUND>
Cc1c(CCN2CCN3C[C@@H](c4ccc5c(c4C)COC5=O)OC[C@@H]3C2)ccc2c1COC2=O

>  <RECORDED_RESULT>
7.52

$$$$
>  <COMPOUND>
Cc1c([C@@H]2CN3CCN(CCc4ccc5c(c4)C[C@H](C)OC5=O)C[C@H]3CO2)ccc(F)c1C#N

>  <RECORDED_RESULT>
6.72

$$$$
>  <COMPOUND>
Cc1c([C@H]2CN3CCN(CC(O)c4ccc(-n5cnnn5)nc4)C[C@H]3CO2)ccc(F)c1C#N (single isomer, unassigned) [Example 18]

>  <RECORDED_RESULT>
6.54

$$$$
